# assayed-system: HIV-1 Env of CAAN.A2 (HIV-1)
# protocol-details: cell-based or functional assay

binder | neutralization IC50
CAP256-VRC26.02 (antibody, V domains shown) VH: EVQLVESGGGVVQPGRSLRLSCAASQFSFGNYGMHWVRQAPGKGLEWVAAISFAGTKTNYADSVKGRFTISRDNSKNTVYLQMNSLRAEDTALYFCAKDIREYECEYWTSDYYDFGRPQPCIDSRGVVGTFDVWGQGTMVTVSS VL: QSVLTQPPSVSAAPGQKVTISCSGSNSNIGNKDVSWYQQIPATAPKLLIYENNKRPSGISDRFSGSKSGTSATLAITGLQTGDEADYYCATWDGRVSVIGTGTNVIVLG | > 50 µg/mL
CAP256-VRC26.12 (antibody, V domains shown) VH: EVQLVQSGGGVVQPGRSLRLSCAAPYFEFGRYGFHWVRQAPGKGLEWVASISFAGRDYYHSPSVWGRFTISRDNSKNTLYLQMNSLRIEDTALYFCARDLRESECEEWESDYYDFGKKGPCVKPRGVAGGLDLWGQGTMVIVSS VL: QSVLTQPPSVSTAPGQTVTVSCSGGTSNTGNNFVSWYQHLPGTAPKLLIYENNKRPLGVPDRFSGAKSGTSATLAITGLQTGDEGDYYCATWSGSLNIGTGTKVSVLG | > 50 µg/mL
